Origin of the recorded values: PubChem BioAssay (NCI)

System: HOP-62 NSCLC
Assay: NCI-60 one-dose screen, 48 h (100 = growth as untreated, 0 = no growth, -100 = all killed)
Details: 10 µM unless noted
This is part of a sample that, as a whole, favours compounds with a hit. Of some 83,000 tested, about 20% had one in any assay.
Respond with Satisfied for growth values of 90% and above, Not satisfied for values below.

Worked examples follow.
-- ask Decide: growth of COc1ccc(-n2nc(C(=O)NCC(=O)Nc3nc4cc(OC)ccc4s3)c3ccccc3c2=O)cc1 >= 90%?
-- reply Not satisfied

-- ask Decide: growth of CCCCn1c(C)nc2ccc(Nc3nc(Cl)nc4nc[nH]c34)cc21 >= 90%?
-- reply Not satisfied

-- ask Decide: growth of COCCCNCC(=O)Nc1c(C)cccc1C >= 90%?
-- reply Satisfied

Next:
-- ask Decide: growth of Cc1[nH]n(C(=O)c2ccncc2)c(=O)c1N=Nc1ccc(O)c(C(=O)O)c1 >= 90%?
-- reply Not satisfied

-- ask Decide: growth of O=C1OCC2=C1C(c1cccc(Br)c1)c1cc3c(cc1N2CCO)OCCO3 (configuration not stated) >= 90%?
-- reply Not satisfied

-- ask Decide: growth of C/C=C(\C)C(C(=O)NC1CCCCC1)N(C(=O)C1CCc2cc(F)ccc2O1)c1ccc([N+](=O)[O-])cc1 (configuration not stated) >= 90%?
-- reply Not satisfied

-- ask Decide: growth of O=C1Nc2ccccc2/C1=C/c1c[nH]c2ccccc12 >= 90%?
-- reply Not satisfied

-- ask Decide: growth of Oc1c(C(c2ccc(F)cc2)N2CCCCC2)ccc2cncnc12 (configuration not stated) >= 90%?
-- reply Not satisfied

-- ask Decide: growth of CC(CN1CCN(CCOCCO)CC1)CN1c2ccccc2Sc2ccc(Cl)cc21 (configuration not stated) >= 90%?
-- reply Satisfied

-- ask Decide: growth of O=C(Oc1c(Cl)c(Cl)c(Cl)c(Cl)c1Cl)C1CCCN1C(=O)OCc1ccccc1 (configuration not stated) >= 90%?
-- reply Not satisfied

-- ask Decide: growth of CC[C@H](Nc1nc(N)nc(N)c1Cl)c1nc2cccc(NCc3ccc(C(=O)NO)cc3)c2c(=O)n1-c1ccccc1 >= 90%?
-- reply Not satisfied

-- ask Decide: growth of CC(OC(=O)Nc1cccc(Cl)c1)C(=O)O (configuration not stated) >= 90%?
-- reply Not satisfied
